Cited source for all entries: patent US10688200B2

Provide the reported Biodistribution: Kidney of each item.
- protocol: Biodistribution of radiotracers in normal mice
- Assay type: in vivo, mouse
- assay.conditions: normal male mice, 120 min
Lab book: enter the figure in % dose/g, no units written.

What value of Biodistribution: Kidney has been recorded for this entry: O=C(O)CCc1ccc(O)c(CN(CCN(CC(=O)O)Cc2cc(CCC(=O)NCCCCCC(=O)NCCCC[C@H](NC(=O)N[C@@H](CCC(=O)O)C(=O)O)C(=O)O)ccc2O)CC(=O)O)n1 [[^68Ga]4a, metal not drawn]
128

Please answer likewise for O=C(O)CC[C@H](NC(=O)N[C@@H](CCCCNC(=O)CCCCCNC(=O)CCc1ccc2c(n1)C[N+]13CC[N+]45CC(=O)[O][68Ga-3]14([O]C(=O)C3)([O]2)[O]c1ccc(CCC(=O)NCCCCCC(=O)NCCCC[C@H](NC(=O)N[C@@H](CCC(=O)O)C(=O)O)C(=O)O)nc1C5)C(=O)O)C(=O)O (some centres unmarked) [[^68Ga]3]
30.3

---

- protocol: Biodistribution of radiotracers in normal mice
- Format: in vivo, mouse
- assay.conditions: normal male mice, 60 min
- Method: Normal CD-1 male mice were injected via the tail vein with 35 μCi of [^68Ga] radiotracers (0.2 nmole of ligand). […] All organs were removed and blood was also collected. Each organ was weighed, and the tissue radioactivity was measured with an automated gamma counter (Wizard, Perkin Elmer). The % ID/g was calculated by comparison with samples of a standard dilution of the initial dose. All measurements were corrected for decay.
Provide the reported Biodistribution: Brain of each item.
Lab book: enter the figure in % dose/g, no units written.

What value of Biodistribution: Brain has been recorded for this entry: O=C(O)CC[C@H](NC(=O)N[C@@H](CCCCNC(=O)CCCCCNC(=O)CCc1ccc2c(c1)C[N+]13CC[N+]45CC(=O)[O][68Ga-3]14([O]C(=O)C3)([O]2)[O]c1ccc(CCC(=O)NCC(=O)O)cc1C5)C(=O)O)C(=O)O (stereo partly shown) [[^68Ga]1c]
0.03

Please answer likewise for C[C@H](NC(=O)CCc1ccc2c(c1)C[N+]13CC[N+]45CC(=O)[O][68Ga-3]41([O]C(=O)C3)([O]c1ccc(CCC(=O)NCCCCCC(=O)NCCCC[C@H](NC(=O)N[C@@H](CCC(=O)O)C(=O)O)C(=O)O)cc1C5)[O]2)C(=O)O (stereo partly shown) [[^68Ga]1d]
0.03

Please answer likewise for O=C(O)CC[C@H](NC(=O)N[C@@H](CCCCNC(=O)CCCCCNC(=O)CCc1ccc2c(n1)C[N+]13CC[N+]45CC(=O)[O][68Ga-3]14([O]C(=O)C3)([O]2)[O]c1ccc(CCC(=O)NCCCCCC(=O)NCCCC[C@H](NC(=O)N[C@@H](CCC(=O)O)C(=O)O)C(=O)O)nc1C5)C(=O)O)C(=O)O (stereo partly shown) [[^68Ga]3]
0.06

Please answer likewise for O=C(O)CCc1ccc2c(c1)C[N+]13CC[N+]45CC(=O)[O][68Ga-3]14([O]C(=O)C3)([O]2)[O]c1ccc(CCC(=O)NCC(=O)N[C@@H](Cc2ccc(OCC(=O)N[C@@H](Cc3ccccc3)C(=O)NCCCC[C@H](NC(=O)N[C@@H](CCC(=O)O)C(=O)O)C(=O)O)cc2)C(=O)O)cc1C5 (stereo partly shown) [[^68Ga]5b]
0.03

---

- protocol: Biodistribution of radiotracers in normal mice
- Format: in vivo, mouse
- assay.conditions: normal male mice, 2 min
- Protocol: Normal CD-1 male mice were injected via the tail vein with 35 μCi of [^68Ga] radiotracers (0.2 nmole of ligand). […] All organs were removed and blood was also collected. Each organ was weighed, and the tissue radioactivity was measured with an automated gamma counter (Wizard, Perkin Elmer). The % ID/g was calculated by comparison with samples of a standard dilution of the initial dose. All measurements were corrected for decay.
assay.endpoint: Biodistribution: Liver (% dose/g)
Lab book: enter the figure in % dose/g, no units written.

What value of Biodistribution: Liver has been recorded for this entry: O=C(O)CC[C@H](NC(=O)N[C@@H](CCCCNC(=O)CCCCCNC(=O)CCc1ccc2c(c1)C[N+]13CC[N+]45CC(=O)[O][68Ga-3]14([O]C(=O)C3)([O]2)[O]c1ccc(CCC(=O)NCCNC(=O)CN2CCN(CC(=O)O)CCN(CC(=O)O)CCN(CC(=O)O)CC2)cc1C5)C(=O)O)C(=O)O (stereo partly shown) [[^68Ga]1g]
2.00

Please answer likewise for O=C(O)CCc1ccc2c(c1)C[N+]13CC[N+]45CC(=O)[O][68Ga-3]14([O]C(=O)C3)([O]2)[O]c1ccc(CCC(=O)NCC(=O)N[C@@H](Cc2ccc(OCC(=O)N[C@@H](Cc3ccccc3)C(=O)NCCCC[C@H](NC(=O)N[C@@H](CCC(=O)O)C(=O)O)C(=O)O)cc2)C(=O)O)cc1C5 (stereo partly shown) [[^68Ga]5b]
2.97

Please answer likewise for O=C(O)CC[C@H](NC(=O)N[C@@H](CCCCNC(=O)CCCCCNC(=O)CCc1ccc2c(c1)C[N+]13CC[N+]45CC(=O)[O][68Ga-3]14([O]C(=O)C3)([O]2)[O]c1ccc(CCC(=O)N[C@@H](CC(=O)O)C(=O)O)cc1C5)C(=O)O)C(=O)O (stereo partly shown) [[^68Ga]1e]
2.00

Please answer likewise for O=C(O)CC[C@H](NC(=O)N[C@@H](CCCCNC(=O)CCCCCNC(=O)CCc1ccc2c(c1)C[N+]13CC[N+]45CC(=O)[O][68Ga-3]14([O]C(=O)C3)([O]2)[O]c1ccc(CCC(=O)NCC(=O)O)cc1C5)C(=O)O)C(=O)O (stereo partly shown) [[^68Ga]1c]
2.91

---

- protocol: Biodistribution of radiotracers in normal mice
- Format: in vivo, mouse
- assay.conditions: normal male mice, 120 min
assay.endpoint: Biodistribution: Heart
Answers without a unit are incomplete; give the number and then its unit.

What value of Biodistribution: Heart has been recorded for this entry: O=C(O)CCc1ccc(O)c(CN(CCN(CC(=O)O)Cc2cc(CCC(=O)NCCCCCC(=O)NCCCC[C@H](NC(=O)N[C@@H](CCC(=O)O)C(=O)O)C(=O)O)ccc2O)CC(=O)O)n1 [[^68Ga]4a, metal not drawn]
0.21 ± 0.03 % dose/g

---

- protocol: Biodistribution of radiotracers in normal mice
- Format: in vivo, mouse
- assay.conditions: normal male mice, 2 min
Provide the reported Biodistribution: Bone of each item.
Lab book: enter the figure in % dose/g, no units written.

What value of Biodistribution: Bone has been recorded for this entry: O=C(O)CCc1ccc2c(c1)C[N+]13CC[N+]45CC(=O)[O][68Ga-3]14([O]C(=O)C3)([O]2)[O]c1ccc(CCC(=O)NCCCCCC(=O)NCCCC[C@H](NC(=O)N[C@@H](CCC(=O)O)C(=O)O)C(=O)O)cc1C5 (stereo partly shown) [[^68Ga]1a, reference compound]
1.77

Please answer likewise for O=C(O)CC[C@H](NC(=O)N[C@@H](CCCCNC(=O)CCCCCNC(=O)CCc1ccc2c(n1)C[N+]13CC[N+]45CC(=O)[O][68Ga-3]14([O]C(=O)C3)([O]2)[O]c1ccc(CCC(=O)NCCCCCC(=O)NCCCC[C@H](NC(=O)N[C@@H](CCC(=O)O)C(=O)O)C(=O)O)nc1C5)C(=O)O)C(=O)O (stereo partly shown) [[^68Ga]3]
3.53

Please answer likewise for O=C(O)CC[C@H](NC(=O)N[C@@H](CCCCNC(=O)CCCCCNC(=O)CCc1ccc2c(c1)C[N+]13CC[N+]45CC(=O)[O][68Ga-3]14([O]C(=O)C3)([O]2)[O]c1ccc(CCC(=O)NCCNC(=O)CN2CCN(CC(=O)O)CCN(CC(=O)O)CCN(CC(=O)O)CC2)cc1C5)C(=O)O)C(=O)O (stereo partly shown) [[^68Ga]1g]
1.51

Please answer likewise for O=C(O)CC[C@H](NC(=O)N[C@@H](CCCCNC(=O)CCCCCNC(=O)CCc1ccc2c(c1)C[N+]13CC[N+]45CC(=O)[O][68Ga-3]14([O]C(=O)C3)([O]2)[O]c1ccc(CCC(=O)N[C@@H](CC(=O)O)C(=O)O)cc1C5)C(=O)O)C(=O)O (stereo partly shown) [[^68Ga]1e]
2.33

---

- system: PSMA (Homo sapiens, UniProt Q04609)
- Construct: 100 μL of freshly harvested PSMA cells; endogenous in cells; host or cells: 'PSMA cells' in the method
- Sequence (Q04609 whole entry): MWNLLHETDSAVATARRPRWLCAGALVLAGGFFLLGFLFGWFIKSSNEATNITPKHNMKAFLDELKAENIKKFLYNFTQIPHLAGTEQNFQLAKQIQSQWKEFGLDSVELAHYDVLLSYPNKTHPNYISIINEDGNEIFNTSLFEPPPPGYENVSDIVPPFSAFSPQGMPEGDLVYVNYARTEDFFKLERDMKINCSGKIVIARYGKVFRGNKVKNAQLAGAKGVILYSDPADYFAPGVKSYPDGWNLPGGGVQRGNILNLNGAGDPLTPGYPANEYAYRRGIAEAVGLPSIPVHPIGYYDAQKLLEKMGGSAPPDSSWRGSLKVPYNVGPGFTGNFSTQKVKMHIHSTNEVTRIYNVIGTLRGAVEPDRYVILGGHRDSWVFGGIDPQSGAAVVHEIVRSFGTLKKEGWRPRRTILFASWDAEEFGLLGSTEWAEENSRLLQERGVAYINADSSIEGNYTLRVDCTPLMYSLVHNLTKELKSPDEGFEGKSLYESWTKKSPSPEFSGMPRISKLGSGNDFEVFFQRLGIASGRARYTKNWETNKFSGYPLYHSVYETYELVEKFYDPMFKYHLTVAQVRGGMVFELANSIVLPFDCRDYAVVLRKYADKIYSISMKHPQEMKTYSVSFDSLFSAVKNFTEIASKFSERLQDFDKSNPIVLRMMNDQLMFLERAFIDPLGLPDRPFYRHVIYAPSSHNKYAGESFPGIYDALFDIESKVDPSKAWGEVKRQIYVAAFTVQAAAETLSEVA
- protocol: In vitro competitive binding assay to determine IC50 to PSMA
- assay.conditions: LNCaP cells, [125I]MIP-1095 radioligand, 37° C. 1 h, mean±SD (n=4); read-out: PSMA binding affinities of cold ligands, IC50
assay.endpoint: pIC50
Answer as the number alone; pIC50 is minus log10 of concentration in mol/L.

What value of pIC50 has been recorded for this entry: `O=C(O)CCc1ccc(O)c(CN(CCN(CC(=O)O)Cc2nc(CCC(=O)NCCCCCC(=O)NCCCC[C@H](NC(=O)N[C@@H](CCC(=O)O)C(=O)O)C(=O)O)ccc2O)CC(=O)O)c1`
7.39

Please answer likewise for O=C(O)CC[C@H](NC(=O)N[C@@H](CCCCNC(=O)Nc1ccc(I)cc1)C(=O)O)C(=O)O [MIP-1095, reference compound]
8.34

Please answer likewise for `O=C(O)CC[C@H](NC(=O)N[C@@H](CCCCNC(=O)[C@H](Cc1ccccc1)NC(=O)COc1ccc(C[C@H](NC(=O)CNC(=O)CN2CCN(CC(=O)O)CCN(CC(=O)O)CCN(CC(=O)O)CC2)C(=O)O)cc1)C(=O)O)C(=O)O`
7.44

Please answer likewise for `O=C(O)CC[C@H](NC(=O)N[C@@H](CCCCNC(=O)[C@H](Cc1ccccc1)NC(=O)COc1ccc(C[C@H](NC(=O)CNC(=O)c2cccc(I)c2)C(=O)O)cc1)C(=O)O)C(=O)O`
8.30

Please answer likewise for `O=C(O)CCc1ccc(O)c(CN(CCN(CC(=O)O)Cc2cc(CCC(=O)NCCCCCC(=O)NCCCC[C@H](NC(=O)N[C@@H](CCC(=O)O)C(=O)O)C(=O)O)ccc2O)CC(=O)O)n1`
7.17

Please answer likewise for `O=C(O)CC[C@H](NC(=O)N[C@@H](CCCCNC(=O)[C@H](Cc1ccccc1)NC(=O)COc1ccc(C[C@H](NC(=O)CNC(=O)c2ccc(F)nc2)C(=O)O)cc1)C(=O)O)C(=O)O`
8.22

Please answer likewise for `O=C(O)CC[C@H](NC(=O)N[C@@H](CCCCNC(=O)CCCCCNC(=O)CCc1ccc(O)c(CN(CCN(CC(=O)O)Cc2cc(CCC(=O)NCCNC(=O)CN3CCN(CC(=O)O)CCN(CC(=O)O)CCN(CC(=O)O)CC3)ccc2O)CC(=O)O)c1)C(=O)O)C(=O)O`
7.15

Please answer likewise for O=C(O)CC[C@H](NC(=O)N[C@@H](CCCCNC(=O)CCCCCNC(=O)CCc1ccc(O)c(CN(CCN(CC(=O)O)Cc2cc(CCC(=O)N[C@H]3C(O)O[C@H](CO)[C@@H](O)[C@@H]3O)ccc2O)CC(=O)O)c1)C(=O)O)C(=O)O (stereo partly drawn)
7.27

Please answer likewise for `O=C(O)CC[C@H](NC(=O)N[C@@H](CCCCNC(=O)CCCCCNC(=O)CCc1ccc(O)c(CN(CCN(CC(=O)O)Cc2cc(CCC(=O)N[C@@H](CC(=O)O)C(=O)O)ccc2O)CC(=O)O)c1)C(=O)O)C(=O)O`
7.53
